# protocol_notes: gradient 5% acetonitrile 3 min, to 50% in 2 min, to 85% in 15 min, held 3 min, 100 µL/min
# cond: column: Zorbax Extend-C18 2.1 x 50 mm; eluents: water / acetonitrile, 0.1% formic acid
measured_property: RP-LC retention time (s)

INSERT INTO assay_data (molecule, assay_value) VALUES
  ('O=C(c1cn2c(n1)CSCC2)N1CCC(Cc2ccccc2)CC1', 720),
  ('O=C(CSCc1ccccc1)NCC1CCN(c2ncccn2)CC1', 703),
  ('CCOC(=O)c1[nH]c(C)c(C(=O)C(C)N(C(=O)c2cccc(F)c2)C(C)C)c1C (configuration not stated)', 883),
  ('CCn1cc(CCNC(=O)c2ccccc2Br)c2cccnc21', 700),
  ('Cc1nn(Cc2nc(-c3ccc(NC(=O)C4CCC4)cc3)oc2C)c(C)c1C', 881),
  ('Cc1ccc(S(=O)(=O)N2CCC3(CC2)CC(C)(O)CCO3)cc1Cl (configuration not stated)', 888),
  ('CN(Cc1ccccc1)C(=O)c1cc2c(=O)oc3ccccc3c2n1C', 884);
